Data origin, for the record: PubChem BioAssay (NCI)

# Test system: HCC-2998 colon
# assay procedure: NCI-60 one-dose screen, 48 h (100 = growth as untreated, 0 = no growth, -100 = all killed)
# measurement conditions: 10 µM unless noted
Compounds without any hit were thinned out: in the full panel of roughly 83,000, 20% have a hit.
Entries and their growth
Answer in %, number only, no unit symbol.

Use the examples below as a reference point.
molecule	growth, %
COc1ccc(/C=C\c2cc(OC)c(OC)c(OC)c2)cc1NS(=O)(=O)c1ccc(Cl)cc1	74.8
N/C(=N/N=C/c1ccncc1)N[N+](=O)[O-]	109
CCCCOc1ccc(C(N)Cc2ccccc2)cc1 (stereo not given)	29.9
C=CCn1cc(C=C2C(=O)N(C)C(=O)N(C)C2=O)c2ccccc21	98.1
COC(=O)[C@@H](C)C[C@H](Cc1ccccc1)NC(=O)c1csc(CC[C@H](C(C)C)N(C)C(=O)[C@@H](NC(=O)[C@H]2CCCCN2C)C(C)C)n1	24.5
COc1ccc(NC([Se])=NC23CC4CC(CC(C4)C2)C3)cc1	14.6
N#CC1C(C#N)C2CCC1C1C2N1c1ccccc1 (stereo not given)	102
Clc1cccc(NCOOC2(OOCNc3cccc(Cl)c3)CCCCC2)c1	95.4
CN1C(=O)C(=Cc2cn(CCCCCCn3c4ccccc4c(=O)c4ccccc43)c3ccccc23)C(=O)N(C)C1=O	99.4
C[C@]12CC[C@@H]3c4ccc(Oc5nc(N6CC6)nc(N6CC6)n5)cc4CC[C@H]3[C@@H]1CCC2=O	37

(Q) Give growth for the following molecule: CC1[C@H](C)OC(=O)CC(O)CC(O)CC(O)CCC(O)C(O)C[C@]2(O)CC(O)C(C(=O)O)C(CC(OC3O[C@H](C)[C@@H](O)[C@H](N)[C@@H]3O)/C=C/C=C/C=C/C=C/CC/C=C/C=C/[C@H](C)[C@H]1O)O2 (stereo not given in full)
(A) 103

(Q) Give growth for COC(=O)[C@@H](C)C[C@H](Cc1ccccc1)NC(=O)c1csc([C@@H](C[C@H](C(C)C)N(C)C(=O)[C@@H](NC(=O)[C@H]2CCCCN2C)C2CCCCC2)OC(C)=O)n1
(A) 10.3

(Q) Output measured growth for this item: C#Cc1ccc2c(c1)C(c1ccccc1F)=NCC(=O)N2C
(A) 65.2

(Q) Return growth for the following molecule: CC[C@H](C)[C@H](NC(=O)c1ccccn1)C(=O)N(C)[C@H](C[C@@H](OC(C)=O)c1nc(C(=O)N[C@@H](Cc2ccccc2)C[C@H](C)C(=O)OC)cs1)C(C)C
(A) 23.9

(Q) Hello, please tell me recorded growth for this one: O=C(c1cccc(O)c1O)c1cn(Cc2ccc(F)cc2)c2cccc(O)c12
(A) 35.6

(Q) Item O=[N+]([O-])c1cc([N+](=O)[O-])c(Cl)cc1Cl : provide growth
(A) 38

(Q) Answer with the recorded growth for the molecule listed here: CC[S][Hg][Cl]
(A) 111

----------
# Test system: NCI-H322M lung
# assay procedure: NCI-60 one-dose screen, 48 h
# measurement conditions: 10 µM unless noted
Compounds without any hit were thinned out: in the full panel of roughly 83,000, 20% have a hit. The source made the active and inactive calls. Rule for the calls: active = growth percent below 10; inactive = the rest.
Pick one and only one: y = active, n = inactive

molecule	assigned class
CC12CC=CCC1CCC1C2CCC2(C)C(c3ccc(=O)oc3)CCC12O (stereo not drawn)	y
Clc1cccc(N2COOC3(OOC2)C2CC4CC(C2)CC3C4)c1	n

(Q) Check the results log: what was the call for COC(=O)[C@@H](C)C[C@H](Cc1ccccc1)NC(=O)c1csc([C@@H](C[C@H](C(C)C)N(C)C(=O)[C@@H](NC(=O)[C@H]2CCCCN2C)C(C)C)OC(C)=O)n1 ?
(A) n

(Q) Check the results log: what was the call for Nc1nc([Se])c2ncn(C3OC(CO)C(O)C3O)c2n1 (stereo not drawn) ?
(A) n

(Q) Could you please tell me the result logged for CC(=O)O[C@H]1CC[C@H]2[C@@H]3CC=C4c5nc(-c6ccccc6)sc5CC[C@]4(C)[C@H]3CC[C@]12C in this assay?
(A) n

(Q) Per the records of this test, what outcome belongs to CC1(C)C(C(=O)c2cn(CCCCF)c3ccccc23)C1(C)C ?
(A) n

(Q) So what was the verdict on CN1CCCCC1C(C)(O)c1ccccc1 (stereo not drawn) in this test?
(A) n

(Q) Assay outcome for COC(=O)[C@@H](C)C[C@H](Cc1ccc(F)cc1)NC(=O)c1csc([C@@H](C[C@H](C(C)C)N(C)C(=O)[C@@H](NC(=O)[C@H]2CCCCN2C)C2CC2)OC(C)=O)n1 : what was it?
(A) n

----------
# Tested on: SK-MEL-5 melanoma
# assay procedure: NCI-60 one-dose screen, 48 h (100 = growth as untreated, 0 = no growth, -100 = all killed)
# measurement conditions: 10 µM unless noted
About 83,000 compounds went through this panel and 20% of them were active in at least one assay; those are over-represented in the sample as a whole.
# growth values compiled below
Entry rule: numbers only, all in %.

molecule	growth, %
c1cnc2[nH]cc(-c3csc(-c4cn(CCCCN5CCCCC5)c5ccccc45)n3)c2c1	70.4
C=CCc1cc2c(cc1OCC)OCO2	103
CCN(CCO)C(Cc1ccccc1)c1ccccc1 (stereo not given)	104

(Q) Using the record for COc1cc(C=Nc2cccc(Br)c2)ccc1N(CCCl)CCCl , state its measured growth.
(A) 86

(Q) Indicate the recorded growth value for this molecule: O[C@H](CN1CC1)[C@@H](O)CN1CC1
(A) 75.3

----------
# System: IGROV1 ovarian
# assay procedure: NCI-60 one-dose screen, 48 h
# measurement conditions: 10 µM unless noted
About 83,000 compounds went through this panel and 20% of them were active in at least one assay; those are over-represented in the sample as a whole. Active and inactive are the calls of the source. How the source made its calls: active means growth percent below 10; inactive means the rest.
Please reply with one of these outcomes: 1.0 (active), 0.0 (inactive)

Record excerpt, results attached:
molecule	assigned class
C[C@]12CCc3sc(-c4ccccc4O)nc3C1=CC[C@@H]1[C@@H]2CC[C@]2(C)C(=O)CC[C@@H]12	0.0
Cc1ccc(Nc2nc3c(s2)C2=CC[C@@H]4[C@H](CC[C@]5(C)C(=O)CC[C@@H]45)[C@@]2(C)CC3)cc1	0.0
O=C(O)C(Cl)(Cl)C(F)(F)F	0.0
COC(=O)[C@@H](C)C[C@H](Cc1ccc2ccccc2c1)NC(=O)c1csc([C@@H](C[C@H](C(C)C)N(C)C(=O)[C@@H](NC(=O)[C@H]2CCCCN2C)C(C)C)OC(C)=O)n1	0.0
CC[C@H](C)[C@H](NC(=O)[C@H]1CCCCN1C)C(=O)N(C)[C@H](C[C@@H](OC(C)=O)c1cccc(C(=O)N[C@@H](Cc2ccccc2)C[C@H](C)C(=O)O)n1)C(C)C	0.0
CCCCCCCC(=O)OCC(=O)[C@]1(O)Cc2c(O)c3c(c(O)c2[C@@H](OC2CC(N)C(O)C(C)O2)C1)C(=O)c1c(OC)cccc1C3=O (some centres not stated)	1.0

(Q) Check the results log: what was the call for O=C(CC1(O)C(=O)N(Cc2ccccc2)c2ccc(Br)cc21)c1ccc(C(=O)NCC2CCC3(CC2)OOC2(CCCCC2)OO3)cc1 (configuration not stated) ?
(A) 1.0

(Q) Entry O=C(CCCCCNC1=CC(=O)c2ccccc2C1=O)NCCC[Te]c1ccccc1 : call = ?
(A) 1.0

(Q) Hello, I am checking results. What call was entered for CC1=C2[C@@H](CC1)[C@]1(C)O[C@@](C(C)C)(C[C@H]1O)[C@H]2OC(=O)C1CC1c1ccccc1 (some centres not stated) ?
(A) 0.0

(Q) For this molecule, state the assay outcome: COc1ccc([As]=[As]c2ccc(OC)c(NCS(=O)(=O)O)c2)cc1NCS(=O)(=O)O (configuration not stated)
(A) 1.0

(Q) # fetch the recorded call for O=Cc1cn(Cc2ccc(Cl)cc2)c2ccccc12 here
(A) 1.0

(Q) Recorded test call requested for COc1ccc(S(=O)(=O)Nc2c(/C=C\c3cc(OC)c(OC)c(OC)c3)ccc(OC)c2O)cc1OC
(A) 0.0

(Q) Please indicate how the test categorized O=C(Nc1ccc(Br)cc1)c1cc(Br)cc(Br)c1O .
(A) 0.0

(Q) Lab log entry: CC(=O)OC1C(OC/C2=C/C3[C@@H](C(C)C)CC=C(C)[C@@H]3CC(OC(=O)/C=C/c3cn(C)cn3)[C@]3(C)C=C[C@@]2(O)O3)OCC(O)C1O (some centres not stated) — outcome as called in the assay?
(A) 0.0

----------
# System: SF-268 CNS
# assay procedure: NCI-60 one-dose screen, 48 h (100 = growth as untreated, 0 = no growth, -100 = all killed)
# measurement conditions: 10 µM unless noted
Compounds without any hit were thinned out: in the full panel of roughly 83,000, 20% have a hit.
Threshold check on growth: strictly below 50% is Y; on or above 50% is N.

compound	assigned class
C[C@]12CC[C@H]3[C@@H](CC[C@]4(O)C[C@@H](O[C@@H]5O[C@H](CO)[C@@H](O[C@@H]6OC[C@@H](O)[C@H](O)[C@H]6O)[C@H](O)[C@H]5O)CC[C@]34C=O)[C@@]1(O)CC[C@@H]2C1=CC(=O)OC1	Y

(Q) Given CN[C@]1(c2ccccc2Cl)CCCC[C@H]1NCCCN1CCN(C)CC1 , is recorded growth strictly lower than 50%?
(A) N

(Q) Given COC(=O)[C@@H](C)C[C@H](Cc1ccccc1)NC(=O)c1nc([C@@H](C[C@H](C(C)C)N(C)C(=O)[C@@H](NC(=O)[C@H]2CCCN2C)C(C)C)OC(C)=O)sc1C , is recorded growth strictly lower than 50%?
(A) Y

(Q) For CC(=O)O[C@H]1CC[C@@]2(C)C(=CC[C@H]3[C@@H]4C[C@@H](N5CC5)[C@H](C(C)=O)[C@@]4(C)CC[C@@H]32)C1 , is the recorded growth below the cut-off of 50%?
(A) N

(Q) Find out if reported growth for O=C1C2C(C(=O)[N]1[Hg][c]1ccccc1)C1(Cl)C(Cl)=C(Cl)C2(Cl)C1(Cl)Cl (configuration not stated) is less than 50%
(A) Y

(Q) A record lists CCn1c2ccccc2c2cc(C(=O)c3cccc4c3CCCN4)ccc21 . Is its growth below 50%?
(A) N
